Origin of the recorded values: ChEMBL document CHEMBL4340526

- Test system: HCT-116
- Assay Details: Cytotoxicity against human HCT116 cells assessed as reduction in cell viability measured after 72 hrs by MTT assay
- Format: functional, cell-based
- Recorded Conditions: HCT-116, 72 h
Assay Metric: pIC50
The meaning of pIC50 here: minus log10 of the concentration in molar units.

Provide pIC50 value for the following compound: COc1ccc(-c2ccc3ncc(-c4nnco4)c(NCCCn4ccnc4)c3c2)cc1
5.63

###

- Target Entity: DNA topoisomerase 1 (Homo sapiens, UniProt P11387)
- Sequence (P11387 whole entry): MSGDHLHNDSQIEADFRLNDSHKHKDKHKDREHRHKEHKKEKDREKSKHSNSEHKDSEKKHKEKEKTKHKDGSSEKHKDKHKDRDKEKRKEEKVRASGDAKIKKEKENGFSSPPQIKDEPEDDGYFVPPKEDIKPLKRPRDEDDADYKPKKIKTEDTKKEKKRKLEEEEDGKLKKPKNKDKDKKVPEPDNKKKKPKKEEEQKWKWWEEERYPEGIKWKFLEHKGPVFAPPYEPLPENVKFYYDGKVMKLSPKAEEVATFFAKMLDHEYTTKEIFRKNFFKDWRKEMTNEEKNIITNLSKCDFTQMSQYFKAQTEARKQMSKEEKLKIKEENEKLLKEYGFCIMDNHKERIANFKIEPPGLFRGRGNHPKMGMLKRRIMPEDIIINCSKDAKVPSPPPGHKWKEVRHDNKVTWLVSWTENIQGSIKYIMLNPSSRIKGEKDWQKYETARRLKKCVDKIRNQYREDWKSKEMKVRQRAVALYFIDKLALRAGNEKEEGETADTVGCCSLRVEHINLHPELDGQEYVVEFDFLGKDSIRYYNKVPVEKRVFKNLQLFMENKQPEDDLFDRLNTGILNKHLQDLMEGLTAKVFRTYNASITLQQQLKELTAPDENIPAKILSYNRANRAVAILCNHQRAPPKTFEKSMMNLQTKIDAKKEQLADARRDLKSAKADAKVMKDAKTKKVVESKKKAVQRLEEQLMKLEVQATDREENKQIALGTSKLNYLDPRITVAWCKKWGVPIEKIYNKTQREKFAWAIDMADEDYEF
- Assay Details: Poison activity at TOP1 in human MCF7 cells assessed as decrease in relaxed supercoiled pBS(SK+) DNA mobility measured after 30 mins by ethidium bromide staining based agarose gel electrophoresis
- Assay type: cell-based
Assay Metric: IC50

Provide IC50 value for the following compound: COc1ccc(-c2ccc3ncc(-c4nnco4)c(NCCCN4CCOCC4)c3c2)cc1
2510 nM

###

Listing: remaining at 2 h of selected compounds
- Assay Details: Stability of the compound in human plasma assessed as parent compound remaining at […] measured after 2 hrs by LC-MS/MS analysis
- Assay type: ADME, cell-free
- Recorded Conditions: read-out: Stability

Solved cases below.
>  <Sample Smiles>
COc1ccc(-c2ccc3ncc(-c4nnco4)c(NCCCn4ccnc4)c3c2)cc1

>  <remaining at 2 h>
93.3%

$$$$
>  <Sample Smiles>
COc1ccc(-c2ccc3ncc(-c4nnco4)c(NCCCN4CCOCC4)c3c2)cc1

>  <remaining at 2 h>
83.4%

$$$$

Okay, next one:
Provide remaining at 2 h value for the following compound: CC[C@@]1(O)C(=O)OCc2c1cc1n(c2=O)Cc2cc3ccccc3nc2-1
15.7%
